biological target: human muscarinic acetylcholine M3 receptor (Homo sapiens, UniProt P20309); construct: expressed in transfected cells; host or cells: CHO-K1 (Chinese Hamster Ovary) cell membranes; assay: Muscarinic 3 receptor binding assay ([3H]NMS competition, SPA), single concentration 1 μM; conditions: 1 μM compound; % inhibition specific [3H]-NMS binding
Sequence (P20309 whole entry): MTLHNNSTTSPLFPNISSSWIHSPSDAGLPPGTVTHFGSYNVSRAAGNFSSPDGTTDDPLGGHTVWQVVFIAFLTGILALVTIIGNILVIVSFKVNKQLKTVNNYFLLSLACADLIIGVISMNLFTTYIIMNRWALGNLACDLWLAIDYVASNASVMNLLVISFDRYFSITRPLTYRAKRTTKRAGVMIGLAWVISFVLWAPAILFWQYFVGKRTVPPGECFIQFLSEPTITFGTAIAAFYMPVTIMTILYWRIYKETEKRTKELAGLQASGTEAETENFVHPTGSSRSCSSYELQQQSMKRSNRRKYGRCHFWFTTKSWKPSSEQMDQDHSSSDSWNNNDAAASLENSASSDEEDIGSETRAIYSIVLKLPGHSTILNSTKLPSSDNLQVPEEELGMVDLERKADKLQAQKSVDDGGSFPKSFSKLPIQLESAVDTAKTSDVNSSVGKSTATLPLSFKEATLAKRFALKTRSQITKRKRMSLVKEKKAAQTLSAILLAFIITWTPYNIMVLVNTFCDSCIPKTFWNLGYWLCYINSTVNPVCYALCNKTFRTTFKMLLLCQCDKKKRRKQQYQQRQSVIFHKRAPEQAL
# reported inhibition at 1 µM; entries follow
Provide the reading as a plain figure in %.

[ask] Please report the recorded inhibition at 1 µM for O=C1COc2c(CCNCCN(C(=O)CCOCCc3cccc(CN4CCC5(CC4)CN(C(=O)c4cnc6ccccc6c4)CCO5)c3)C3CCCCC3)ccc(O)c2N1 .
[reply] 99

[ask] # get_value(readout='inhibition at 1 µM', item= O=C1COc2c(CCNCCN(C(=O)CCOCCc3cccc(CN4CCC5(CC4)CN(C(=O)Cc4c[nH]c6ccccc46)CCO5)c3)C3CCCCC3)ccc(O)c2N1 )
[reply] 96

[ask] Please look up its inhibition at 1 µM: O=C1COc2c(CCNCCN(C(=O)CCOCCc3cccc(CN4CCC5(CC4)CN(C(=O)c4cnc6ccccc6n4)CCO5)c3)C3CCCCC3)ccc(O)c2N1
[reply] 100
